biological target: LARP4B (UniProt Q92615 1-738); assay: EMSA
Sequence (Q92615 whole entry): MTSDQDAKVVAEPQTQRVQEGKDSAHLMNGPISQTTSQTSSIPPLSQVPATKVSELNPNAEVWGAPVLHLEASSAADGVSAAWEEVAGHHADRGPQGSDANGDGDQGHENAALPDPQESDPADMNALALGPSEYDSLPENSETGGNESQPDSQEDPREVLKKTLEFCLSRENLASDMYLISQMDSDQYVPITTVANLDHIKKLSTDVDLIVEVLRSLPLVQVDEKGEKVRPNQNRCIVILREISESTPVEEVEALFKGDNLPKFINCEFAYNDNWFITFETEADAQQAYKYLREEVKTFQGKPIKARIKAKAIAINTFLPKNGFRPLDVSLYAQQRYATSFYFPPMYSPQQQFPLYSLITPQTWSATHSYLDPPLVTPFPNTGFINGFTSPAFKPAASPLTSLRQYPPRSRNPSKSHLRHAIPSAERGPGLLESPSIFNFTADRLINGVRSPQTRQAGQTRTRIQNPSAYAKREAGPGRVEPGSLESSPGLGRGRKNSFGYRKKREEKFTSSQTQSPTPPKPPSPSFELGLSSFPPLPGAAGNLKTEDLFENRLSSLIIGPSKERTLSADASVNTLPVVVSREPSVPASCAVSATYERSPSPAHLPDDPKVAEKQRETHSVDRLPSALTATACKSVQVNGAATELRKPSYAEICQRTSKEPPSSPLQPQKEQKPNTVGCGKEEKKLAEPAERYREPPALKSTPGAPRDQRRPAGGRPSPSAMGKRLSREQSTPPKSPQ
measured-property: Kd

For GUAGAGACUUCCGUCACGCUUGGUAGAGUUUAUUUUUUUGA (ssRNA) [CKB] , what is its reported Kd?
~200 nM

Cited source: paper PMC4478348
